# Measurement setup: in acetonitrile, 313.15 K
Measurement kind: solubility (mole fraction)
Answer with the value's number alone.

Field request: solubility (mole fraction) | item: `Cc1c(-c2ccccc2)oc2c(C(=O)OCCN3CCCCC3)cccc2c1=O.Cl` 0.000112

----------
# Measurement setup: in DMSO, 303.15 K
Measurement kind: solubility (mole fraction)
Answer with the value's number alone.

Field request: solubility (mole fraction) | item: `Cc1c(-c2ccccc2)oc2c(C(=O)OCCN3CCCCC3)cccc2c1=O.Cl` 0.000911

----------
# Measurement setup: in NMP, 288.15 K
Measurement kind: solubility (mole fraction)
Answer with the value's number alone.

Field request: solubility (mole fraction) | item: `Cc1c(-c2ccccc2)oc2c(C(=O)OCCN3CCCCC3)cccc2c1=O.Cl` 0.00039

----------
# Measurement setup: in ethanol, 298.15 K
Measurement kind: solubility (mole fraction)
Answer with the value's number alone.

Field request: solubility (mole fraction) | item: `Cc1c(-c2ccccc2)oc2c(C(=O)OCCN3CCCCC3)cccc2c1=O.Cl` 0.000182

----------
# Measurement setup: in NMP, 283.15 K
Measurement kind: solubility (mole fraction)
Answer with the value's number alone.

Field request: solubility (mole fraction) | item: `Cc1c(-c2ccccc2)oc2c(C(=O)OCCN3CCCCC3)cccc2c1=O.Cl` 0.000334

----------
# Measurement setup: in DMSO, 298.15 K
Measurement kind: solubility (mole fraction)
Answer with the value's number alone.

Field request: solubility (mole fraction) | item: `Cc1c(-c2ccccc2)oc2c(C(=O)OCCN3CCCCC3)cccc2c1=O.Cl` 0.000775

----------
# Measurement setup: in water, 278.15 K
Measurement kind: solubility (mole fraction)
Answer with the value's number alone.

Field request: solubility (mole fraction) | item: `Cc1c(-c2ccccc2)oc2c(C(=O)OCCN3CCCCC3)cccc2c1=O.Cl` 0.000219

----------
# Measurement setup: in ethanol, 303.15 K
Measurement kind: solubility (mole fraction)
Answer with the value's number alone.

Field request: solubility (mole fraction) | item: `Cc1c(-c2ccccc2)oc2c(C(=O)OCCN3CCCCC3)cccc2c1=O.Cl` 0.00022

----------
# Measurement setup: in n-propanol, 288.15 K
Measurement kind: solubility (mole fraction)

Field request: solubility (mole fraction) | item: `Cc1c(-c2ccccc2)oc2c(C(=O)OCCN3CCCCC3)cccc2c1=O.Cl` 4.58e-05

----------
# Measurement setup: in NMP, 308.15 K
Measurement kind: solubility (mole fraction)
Answer with the value's number alone.

Field request: solubility (mole fraction) | item: `Cc1c(-c2ccccc2)oc2c(C(=O)OCCN3CCCCC3)cccc2c1=O.Cl` 0.000768

----------
# Measurement setup: in n-butanol, 323.15 K
Measurement kind: solubility (mole fraction)
Answer with the value's number alone.

Field request: solubility (mole fraction) | item: `Cc1c(-c2ccccc2)oc2c(C(=O)OCCN3CCCCC3)cccc2c1=O.Cl` 0.000468

----------
# Measurement setup: in acetonitrile, 298.15 K
Measurement kind: solubility (mole fraction)
Answer with the value's number alone.

Field request: solubility (mole fraction) | item: `Cc1c(-c2ccccc2)oc2c(C(=O)OCCN3CCCCC3)cccc2c1=O.Cl` 6.13e-05

----------
# Measurement setup: in water, 313.15 K
Measurement kind: solubility (mole fraction)
Answer with the value's number alone.

Field request: solubility (mole fraction) | item: `Cc1c(-c2ccccc2)oc2c(C(=O)OCCN3CCCCC3)cccc2c1=O.Cl` 0.000757
